Listed here are binders together with their documented pKd.
molecular target: truncated hTfR1 of SEQ ID NO:89 (human) (UniProt P02786); assay: SPR, hTfR1 on CM5, bispecific molecule with scFv module injected
Sequence (P02786 other isoform, or with tags, fused parts or gaps limits assumed): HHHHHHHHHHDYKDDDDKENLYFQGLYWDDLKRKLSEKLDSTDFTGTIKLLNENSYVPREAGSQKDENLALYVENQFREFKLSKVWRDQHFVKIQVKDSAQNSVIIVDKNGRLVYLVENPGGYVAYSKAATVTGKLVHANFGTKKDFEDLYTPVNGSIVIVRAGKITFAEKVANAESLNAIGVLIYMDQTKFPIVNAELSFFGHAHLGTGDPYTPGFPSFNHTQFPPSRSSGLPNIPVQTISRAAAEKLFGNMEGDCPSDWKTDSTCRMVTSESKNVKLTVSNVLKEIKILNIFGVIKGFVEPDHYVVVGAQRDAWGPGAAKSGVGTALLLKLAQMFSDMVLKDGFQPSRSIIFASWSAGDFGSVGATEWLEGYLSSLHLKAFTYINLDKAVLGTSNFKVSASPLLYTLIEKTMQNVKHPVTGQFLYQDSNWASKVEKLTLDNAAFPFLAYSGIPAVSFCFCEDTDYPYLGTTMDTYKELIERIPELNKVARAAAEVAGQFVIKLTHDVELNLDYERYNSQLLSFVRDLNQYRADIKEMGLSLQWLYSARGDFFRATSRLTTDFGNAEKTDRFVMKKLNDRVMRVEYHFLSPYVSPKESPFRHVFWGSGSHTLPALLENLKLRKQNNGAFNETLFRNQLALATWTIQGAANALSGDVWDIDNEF
pKd: −log10 of the molar value.

Before answering, review these 2 worked examples.
[
  {
    "Binder": "bispecific binding molecule (format of WO2022/258841) with h26D3 LC5 scFv module (bispecific antibody, part only; not given: cargo antibody chains, linkers, format, V domains shown, not shown: another chain or arm of the molecule; large carriers; small tags and cut ends) VH: EVQLVQSGAEVKKPGSSVKVSCKASGYIFTDYNMDWVRQAPGQGLEWIGDINPDYDTTSYNEKFKGRATLTVDKSTSTAYMELSSLRSEDTAVYYCARGGYSGSSYYHPMDYWGQGTLVTVSS VL: DIQMTQSPSSVSASVGDRVTITCKSSQSLLYSTNQKNYLAWYQQKPGKAPKLLIYWASTRESGVPSRFSGSGSGTDFTLTISSLQPEDFATYYCQQAFIYPRTFGQGTKVEIK",
    "Measure": "pKd",
    "Result": "6.30 to 6.40"
  },
  {
    "Binder": "bispecific binding molecule (format of WO2022/258841) with h26D3 HC6 scFv module (bispecific antibody, part only; not given: Cargo antibody chains, linkers, domain order, V domains shown, not shown: another chain or arm of the molecule; large carriers; small tags and cut ends) VH: EVQLVQSGAEVKKPGSSVKVSCKASGYIFTDYNMDWVRQAPGQGLEWIGDINPDADTTSYNEKFKGRATLTVDKSTSTAYMELSSLRSEDTAVYYCARGGYSGSSYYHPMDYWGQGTLVTVSS VL: DIQMTQSPSSVSASVGDRVTITCKSSQSLLYSTNQKNYLAWYQQKPGKAPKLLIYWASTRESGVPSRFSGSGSGTDFTLTISSLQPEDFATYYCQQYFIYPRTFGQGTKVEIK",
    "Measure": "pKd",
    "Result": "6.70 to 7.00"
  }
]

Turning now to a further record.
Qu. Report pKd for bispecific binding molecule (format of WO2022/258841) with h26D3 LC1 scFv module (bispecific antibody, part only; not given: Cargo antibody chains, linkers, domain order, V domains shown, not shown: another chain or arm of the molecule; large carriers; small tags and cut ends) VH: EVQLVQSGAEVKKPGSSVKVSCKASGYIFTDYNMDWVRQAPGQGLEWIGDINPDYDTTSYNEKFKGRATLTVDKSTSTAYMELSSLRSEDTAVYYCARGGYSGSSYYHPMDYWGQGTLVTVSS VL: DIQMTQSPSSVSASVGDRVTITCKSSQSLLASTNQKNYLAWYQQKPGKAPKLLIYWASTRESGVPSRFSGSGSGTDFTLTISSLQPEDFATYYCQQYFIYPRTFGQGTKVEIK please.
Ans. 7.40
